Hello, the source for this data is PubChem BioAssay (NCI), in case you need it.

Consider the following compounds and their measured GI50 readings.
- Test system: RXF 393 renal
- TEST SUMMARY: NCI tumour cell line growth inhibition, 48 h

QUERY: // fetch RXF 393 renal GI50 for "C[C@]12CCc3sc(NCCc4ccccc4)nc3C1=CC[C@@H]1[C@@H]2CC[C@]2(C)C(=O)CC[C@@H]12"
RESULT: 1.73 µM

QUERY: Can you handle O=c1ccn(C2CC(O)C(CO)O2)c(=O)[nH]1 (stereo not given) next?
RESULT: > 5000 µM

QUERY: Next up: "Cc1ccc(-c2nc(C#N)c(S(=O)(=O)n3nc(C)cc3N)o2)cc1"
RESULT: 1.87 µM

QUERY: Likewise for "CCOC(=O)c1cc2c(n1Cc1cccc(OC)c1)-c1oncc1CCC2" ?
RESULT: 1.07 µM

QUERY: Now the compound "COc1ccc(C(=O)/C=C/c2cccc([N+](=O)[O-])c2)c(OC)c1"
RESULT: 1.13 µM

----------
- Test system: M19-MEL melanoma
- TEST SUMMARY: NCI tumour cell line growth inhibition, 48 h
Each item that follows carries a reported TGI.

COMPOUND	TGI
O=C1NC2(CCCCCC2)C2CCCCCCC12O (centres undefined)	> 100 µM

QUERY: What value of TGI has been reported for the following compound? "Cc1ccc(N2C(=O)CS/C2=C(\C#N)c2nc3ccccc3[nH]2)cc1"
RESULT: > 100 µM

----------
- System: SF-539 CNS
- TEST SUMMARY: NCI tumour cell line growth inhibition, 48 h
# key: entry, value: log10(TGI)
log10 TGI, µM

MOLECULE	VALUE REPORTED
NCCCCc1cc(O)c2c(c1O)C(=O)c1ccccc1C2=O	1.34
CCC1CN2C(=N1)c1ccccc1-c1cc(Cl)ccc12 (stereo not given)	1.17
CC(C)CC(NC(=O)OC(C)(C)C)C(=O)Nc1ccc(Nc2nc(F)nc(-c3c4ccccc4c4n3CCS4)n2)cc1 (stereo not given)	1.58

QUERY: For the molecule "Cc1ccc(-c2nc(C#N)c(S(=O)(=O)n3nc(C)cc3N)o2)cc1" , what log10(TGI) is on record?
RESULT: 1.24

QUERY: Query "O=C(/C=C/c1ccc(O)c(-c2cc(C(=O)/C=C/c3ccc(O)cc3)c(O)cc2O)c1)c1ccc(O)cc1O" next
RESULT: 1.42

QUERY: Next molecule up: "CCCCC[C@H]1C/C=C2/C(=O)C=C[C@@H]2C/C=C\CCCC(=O)O[C@@H](CCCCC)C/C=C2/C(=O)C=C[C@@H]2C/C=C\CCCC(=O)O1"
RESULT: 0.04

----------
- Test system: COLO 205 colon
- TEST SUMMARY: NCI tumour cell line growth inhibition, 48 h
Reported values of TGI for individual entries

// solved cases for TGI follow
COMPOUND	VALUE REPORTED
CC(C)CC(NC(=O)OC(C)(C)C)C(=O)Nc1ccc(Nc2nc(F)nc(-c3c4ccccc4c4n3CCS4)n2)cc1 (centres undefined)	33.3 µM
O=C1NC2(CCCCCC2)C2CCCCCCC12O (centres undefined)	> 100 µM
COC(=O)c1sc(=S)sc1SCc1ccc(CSc2sc(=S)sc2C(=O)OC)cc1	> 100 µM
CCOP(=O)(OCC)C(C)(CC)N/C(=N/C(NC(C)=O)(C(F)(F)F)C(F)(F)F)NC1=NC(C(F)(F)F)(C(F)(F)F)N=C(C(F)(F)F)O1 (centres undefined)	29.8 µM
COC(=O)C1CN=CN1CCc1ccccc1 (centres undefined)	> 100 µM
CC(C)C1=CC23CCC4C(C)(C(=O)O)CCCC4(C)C2CC1C1C(=O)N(c2ccccc2N2C(=O)C4C5CC6C7(C)CCCC(C)(C(=O)O)C7CCC6(C=C5C(C)C)C4C2=O)C(=O)C13 (centres undefined)	17.8 µM

QUERY: For the record "COc1ccc2c(c1)nnn1c3ncccc3c(N=O)c21" , what value of TGI is listed for COLO 205 colon?
RESULT: 2.74 µM

QUERY: Now consider "COc1cc2c(cc1OC)C(=O)/C(=C/c1ccc(Cl)cc1)CC2" .
RESULT: > 10 µM

QUERY: Try this compound too: OCC1C(/C=C/c2ccoc2)ON2CCCC12 (centres undefined)
RESULT: > 100 µM

----------
# reported TGI; entries follow
- Tested on: UACC-62 melanoma
- TEST SUMMARY: NCI tumour cell line growth inhibition, 48 h
Provide the reading as a plain figure in µM.

# annotated cases, reported TGI shown
COMPOUND	TGI / µM
[N-]=[N+]=CC(=O)c1ccccc1C#CCCc1ccccc1	69.8
Nc1cccc(/C=C/C(=O)N2CCN(CCOC(c3ccccc3)c3ccccc3)CC2)c1	29.6
COc1c(O)cc2oc(-c3ccc(O)cc3)cc(=O)c2c1O	68.1

QUERY: Could you share which TGI value was measured for Cc1ccc(NC2=CC(=O)C(NO)c3ccccc32)cc1 (configuration not stated) ?
RESULT: 4

QUERY: Repeat for the following compound: "Cc1nn(-c2ccccc2)c(C)c1/C=N/N=C1\SCC(=O)N1c1ccccc1"
RESULT: 68.3

QUERY: Here is the next compound: "CN1CCN(CCOc2ccc(-c3cnc4c(-c5ccc(C(F)(F)F)cc5)cnn4c3)cc2)CC1"
RESULT: 3.13

QUERY: Likewise for "CNCCCn1c2c(c3ccc([N+](=O)[O-])cc3c1=O)C(=O)c1cc(OC)cnc1-2" ?
RESULT: 0.122

QUERY: Also check "COC1=CC(c2ccc[nH]2)=N/C1=C\c1[nH]c(C)c(C(=O)CCCCC(=O)NC(C)(C)C)c1C"
RESULT: 10.8

QUERY: Queued: "NC(=O)c1c(NC(=O)c2ccccn2)sc2c1CCC(=O)C2"
RESULT: 67.1

----------
- System: SNB-75 CNS
- TEST SUMMARY: NCI tumour cell line growth inhibition, 48 h
QUANTITY NAME: TGI

COMPOUND	TARGET OR TEST SYSTEM	TGI
COC(=O)CC1NC(=O)[C@@H]1C(C)O (some centres not stated)	SNB-75 CNS	> 100 µM
C/C=C\C(CC(=O)NCCC1CN(S(=O)(=O)c2ccc(C)cc2)c2ccccc21)CC(=O)OC (configuration not stated)	SNB-75 CNS	> 100 µM
CN1CNc2nc(N)n(C)c(=O)c2C1	SNB-75 CNS	> 10 µM

QUERY: Lookup: TGI / SNB-75 CNS / CC12CC3OC(=O)C1COC14OC5(C2C1=O)C(O)(CCC1C4CC(O)C2(O)CC=CC(=O)C12C)C(=O)OC35C (configuration not stated)
RESULT: > 100 µM

QUERY: Now try "CC(=O)OC[C@]12CC[C@@H](C(=O)CBr)[C@@H]1[C@H]1CC[C@@H]3[C@@]4(C)CCCNC(C)(C)[C@@H]4CC[C@@]3(C)[C@]1(C)CC2" .
RESULT: 32.8 µM

QUERY: Also, CC(C)OCC1CC(CC(=O)Nc2nncs2)C(=O)O1 (configuration not stated) please.
RESULT: > 100 µM

----------
- Tested on: HCC-2998 colon
- TEST SUMMARY: NCI tumour cell line growth inhibition, 48 h
QUANTITY NAME: TGI

COMPOUND	QUANTITY NAME	VALUE REPORTED
C=CCc1cccc2cc(C(=O)Nc3ccccc3)c(=N)oc12	TGI	18.4 µM
C[C@H](CCC(=O)O)[C@H]1CC[C@@]2(C)[C@@H]3C(=O)C[C@H]4C(C)(C)[C@@H](O)CC[C@]4(C)[C@H]3C(=O)C[C@]12C	TGI	> 100 µM

QUERY: Endpoint output: TGI of C#CC1(O)C(COP(=O)(O)OC(COCCCCCCCCCCCCCCCCCC)COP(=O)(O)OCC2OC(n3cc(F)c(=O)[nH]c3=O)CC2O)OC(n2ccc(N)nc2=O)C1O (configuration not stated) . Value?
RESULT: > 28.4 µM

QUERY: Quick one: COc1cc2oc3cc(=O)cc4oc(-c5ccccc5)cc(c2c2c1CCC(c1ccccc1)O2)c43 (configuration not stated)
RESULT: > 100 µM

QUERY: Also "Clc1ccc(N=Nc2nc3ccccc3nc2N=Nc2ccc(Cl)cc2Cl)c(Cl)c1" , if possible.
RESULT: > 100 µM

----------
- System: HOP-62 NSCLC
- TEST SUMMARY: NCI tumour cell line growth inhibition, 48 h
Catalogue of compounds with associated TGI
Express the result in µM but write the number alone.

SUBSTANCE SMILES	TARGET OR TEST SYSTEM	UNIT OF MEASUREMENT	TGI
CCn1cnc(C[C@H](NC(=O)[C@@H](NC(=O)Nc2cc(C(F)(F)F)cc(C(F)(F)F)c2)C(C)C)C(=O)OC)c1	HOP-62 NSCLC	µM	3.65

Attention now shifts to the item below.
QUERY: Can you share its TGI? I mean this compound: "NCCSC(c1ccccc1)c1ccccc1"
RESULT: 33.7
